Tested on: SK-MEL-2 melanoma
MEASUREMENT_PROTOCOL: NCI tumour cell line growth inhibition, 48 h

MOLECULE	MEASURED_TARGET	COMPARATOR	TGI / µM
COc1cc([C@H]2c3cc4c(cc3[C@H](NCc3ccc([N+](=O)[O-])cc3)C3COC(=O)[C@H]32)OCO4)cc(OC)c1O (some centres undefined)	SK-MEL-2 melanoma	=	34.9
O=C1c2ccccc2-c2nnc(-c3ccc(Cl)cc3)cc21	SK-MEL-2 melanoma	>	10
CN1C(=O)C(=Cc2cn(Cc3ccccc3)c3ccccc23)C(=O)N(C)C1=O	SK-MEL-2 melanoma	>	67.6
Cc1ccc(C(=O)C2=CN=C3C(=O)N(c4ccccc4)N(C)C3(C)C2=N)cc1 (centres undefined)	SK-MEL-2 melanoma	>	100
COc1ccc(-c2nn(-c3cccc(Cl)c3)cc2-c2c(C#N)c(=O)n3[nH]c(-c4ccc(C)cc4)nc3c2C#N)cc1	SK-MEL-2 melanoma	=	4.02
COc1c2c(c(CC=C(C)C)c3oc(=O)c(-c4ccc(O)cc4)c(O)c13)OC(C)(C)C=C2	SK-MEL-2 melanoma	=	52.8
CC1=C(C(=O)Nc2ccc([N+](=O)[O-])cc2)C(c2ccccc2O)C(C(=O)Nc2ccc([N+](=O)[O-])cc2)=C(C)N1	SK-MEL-2 melanoma	=	31.8
CC(=O)OC1CC[C@@]2(C)C(CC[C@]3(C)C2CC=C2[C@@H]4CC(C)(C)CCC4(C)CCC23C)[C@@]1(C)C(=O)O (some centres undefined)	SK-MEL-2 melanoma	=	38.6
NC(=O)C(=Cc1ccc(CP(=O)(O)O)cc1)C(N)=O	SK-MEL-2 melanoma	>	100
